Parameter pKd: see the listing below.
- TESTED ON: T1, CCL8_HUMAN (Homo sapiens, UniProt P80075)
- T1 sequence (P80075 24-99): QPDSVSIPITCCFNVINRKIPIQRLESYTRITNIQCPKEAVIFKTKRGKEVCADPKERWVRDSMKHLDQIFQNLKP
- PROCEDURE DETAILS: Biolayer interferometry (BLI) binding
- CONDITION NOTES: read-out: Kd, CCL8_HUMAN
pKd: −log10 of the molar value.
MEASURE: pKd

[[record]]
molecule = "P1183_AMBTR: tick CKBP, Amblyomma triste (protein, Amblyomma triste) EAPKDDFEYDGGCPFVVLDNGTHVKPAGCSHLCNGAPETLDNIECYNVTEEVAKRMTPGIPYACWLGWCSKGECKRDNRTEVCYRGSEEE"
measured_value = 5.96

[[record]]
molecule = "P1182_AMBMA: tick CKBP, Amblyomma maculatum (protein, listed as Amblyomma maculatum) EPKDDNDYGGGCPFVVLGNGTHAKPAGCSHLCNGAPETLDNIECYNVTEEVAKRMTPGIPYACWLGWCNKGECKRGNRTEVCYRGSEEE"
measured_value = 7.54

[[record]]
molecule = "P985_AMBPA: tick CKBP, Amblyomma parvum (protein, listed as Amblyomma parvum) DEESEELGASTDVDYEELDANCTCPAPALTSTRNNKHYPLGCIYNCSSYNCTIPDGTPCYVLTLGEVKEHLQIGSTVPNCTCGLCRNGTCVSNGTVEECFAVEEIEET"
measured_value = 8.19

[[record]]
molecule = "P546_AMBCA: tick CKBP, Amblyomma cajennense (protein, Amblyomma cajennense) ENTQQEEEDYDYGTDTCPFPVLANKTNKAKFVGCHQKCNGGDQKLTDGTACYVVERKVWDRMTPMLWYSCPLGECKNGVCEDLRKKEECRKGNGEEK"
measured_value = 8.89

